Tested on: IKK-alpha
Construct: gene CHUK
Details: concentration: 1 μM, replicates: in singlicate; n = 1;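 further: KINOMEscan kinase panel screen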
measured attribute: %Inh (%)
Record the value in %, omitting the unit from your answer.

>  <compound>
COc1cccc(NC(=O)Nc2ccc(C)c(-c3ccc(C(=O)Nc4ccncc4)cc3)c2)c1 [GSK1398474]

>  <%Inh, %>
0

$$$$
>  <compound>
Cc1ccc(NC(=O)Nc2ccc(Cl)cc2)cc1-c1ccc(C(=O)Nc2ccncc2)cc1 [GSK1398472]

>  <%Inh, %>
0

$$$$
>  <compound>
Cc1c(Cn2c3ccccc3n3c(=O)cc(N4CCOCC4)nc23)cccc1C(F)(F)F [GSK2306394]

>  <%Inh, %>
35

$$$$

Quick check: %Inh of COc1ccc(Nc2nccc(N3CCC(NC(=O)c4cc5ccccc5s4)C3)n2)cc1 (centres unmarked) [GSK1379738] ?
21

Quick check: %Inh of Cc1ccccc1Cn1ccn2c(=O)cc(N3CCOCC3)nc12 [GSK2269905] ?
0

---

Tested on: FGR
Settings: concentration: 1 μM, replicates: in singlicate; n = 1
measured attribute: %Inh (%)
Record the value in %, omitting the unit from your answer.

# example entries with known answers
>  <input smiles>
Cc1ccc(NC(=O)Nc2ccc(Cl)c(C(F)(F)F)c2)cc1-c1ccc(C(=O)Nc2ccncc2)cc1

>  <%Inh (%)>
19

$$$$
>  <input smiles>
CNc1nc(-c2ccc3c(N)n[nH]c3c2)cc(N2C[C@@H](C(=O)Nc3ccccc3)CC[C@H]2C)n1

>  <%Inh (%)>
22

$$$$

Quick check: %Inh of Cc1nccc(-c2c(-c3ccc(F)cc3)ncn2CCCN2CCOCC2)n1.Cl ?
0

---

Tested on: MAK
Settings: concentration: 1 μM, replicates: in singlicate; n = 1
measured attribute: %Inh (%)
Record the value in %, omitting the unit from your answer.

>  <molecule>
Cl.Cl.Cl.N#Cc1ccc(CCNc2nccc(-c3cccc(CN4CCNCC4)c3)n2)cc1 [GSK2137462]

>  <%Inh [%]>
8

$$$$
>  <molecule>
Fc1ccc(-c2nn3cccc(F)c3c2-c2ccncc2)cc1 [GW475620]

>  <%Inh [%]>
0

$$$$

--- query ---
Provide value of %Inh for this record tested with MAK: Cc1ccccc1Cn1ccn2c(=O)cc(N3CCOCC3)nc12 [GSK2269905]
0

---

Test system: SLK
Details: concentration: 1 μM, replicates: in singlicate; n = 1
// reported %Inh per item

# example entries with known answers
>  <molecule>
Nc1ncnc2occ(-c3ccc4c(c3)CCN4C(=O)Cc3cc(F)ccc3F)c12 [GSK2645446]

>  <%Inh>
5%

$$$$
>  <molecule>
Fc1ccc(-c2nc3n(c2-c2ccncc2)CCS3)cc1 [GI98581]

>  <%Inh>
25%

$$$$

Provide value of %Inh for this record tested with SLK: Cc1ccc(NC(=O)Nc2ccc(Cl)c(C(F)(F)F)c2)cc1-c1ccc(C(=O)Nc2ccncc2)cc1 [GSK1398470]
21%

Provide value of %Inh for this record tested with SLK: Fc1ccc(-c2nc[nH]c2-c2ccncc2)cc1 [SB-217360]
32%

---

Test system: NEK7
Settings: concentration: 1 μM, replicates: in singlicate; n = 1
measured attribute: %Inh (%)
Record the value in %, omitting the unit from your answer.

# example entries with known answers
>  <molecule>
CC(C)c1cc(-c2ccc3c(N)n[nH]c3c2)nc(N)n1 [GSK2250882]

>  <target system>
NEK7

>  <%Inh [%]>
0

$$$$
>  <molecule>
CN1c2ccc(-c3ccc(C(N)=O)cc3)cc2-c2[nH]ncc2S1(=O)=O

>  <target system>
NEK7

>  <%Inh [%]>
0

$$$$
>  <molecule>
Cc1nccc(-c2c(-c3ccc(F)cc3)ncn2CCCN2CCOCC2)n1.Cl [SB-282975]

>  <target system>
NEK7

>  <%Inh [%]>
0

$$$$
>  <molecule>
COc1ccc(Nc2nccc(-c3ccc(NC(=O)c4cc5cc(F)ccc5[nH]4)cc3)n2)cc1 [GSK1229496]

>  <target system>
NEK7

>  <%Inh [%]>
0

$$$$
>  <molecule>
Fc1ccc(-c2nc[nH]c2-c2ccncc2)cc1 [SB-217360]

>  <target system>
NEK7

>  <%Inh [%]>
0

$$$$
>  <molecule>
O=C(Nc1n[nH]c2cc(-c3ccsc3)ccc12)C1CC1 [SB-732932]

>  <target system>
NEK7

>  <%Inh [%]>
6

$$$$
>  <molecule>
COc1cccc(CNC(=O)NC2CCN(c3ccnc(Nc4ccc(F)cc4)n3)C2)c1 (centres unmarked) [GSK1379723]

>  <target system>
NEK7

>  <%Inh [%]>
2

$$$$

--- query ---
Quick check: %Inh of Cc1ccc(NC(=O)Nc2ccc(Cl)c(C(F)(F)F)c2)cc1-c1ccc(C(=O)Nc2ccncc2)cc1 [GSK1398470] ?
2
